B1: VH:VL chains; a variant is named by its letters at X, in order (parent)
chain 1: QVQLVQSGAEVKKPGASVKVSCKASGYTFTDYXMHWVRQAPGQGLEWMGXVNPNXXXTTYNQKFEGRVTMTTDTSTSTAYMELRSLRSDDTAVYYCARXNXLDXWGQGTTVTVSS
chain 2: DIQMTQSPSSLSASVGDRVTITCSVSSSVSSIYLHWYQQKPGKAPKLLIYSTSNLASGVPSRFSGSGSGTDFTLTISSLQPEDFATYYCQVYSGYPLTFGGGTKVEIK

Variants of: B1
Assay: yeast display scFab, FACS + sequencing
Property Measured: non-specific binding call

1) FRGRASAD; binds
2) SKKRGAAA; binds
3) YTARGVSF; binds
4) VKGRSDGV; no binding
5) VAGTGSAD; no binding
6) VETGNDAV; no binding
7) DARADSLV; no binding
8) YTKKTFSY; binds
9) FRRRGSAD; binds
10) YAGGDDAV; no binding
11) FRTKGAAD; binds
12) SEEEGAGD; no binding
13) SETGGDVA; no binding
14) YRRRGAAD; binds
15) YKTGSSWD; binds
16) VRTEDSWA; no binding
17) SEARSDGF; no binding
18) DRAGDSWD; no binding
19) VARKGVGV; binds
20) VAGTGDVF; no binding
21) YRAGGSSY; binds
22) YRGAGSVD; binds
23) SATKTVVV; binds
24) SRRGSASS; binds
25) VTTKSDGA; no binding
26) FRRGSSAV; binds
27) YKTGDSWV; no binding
28) YKGKGAWD; binds
29) FKGKGVGD; binds
30) VTTRAASV; no binding
31) SEGTGAGV; no binding
32) YKKTGYWV; binds
33) VTGTGSLD; no binding
34) YGGGGDVV; no binding
35) YKGRGVGA; binds
36) YRRRGSSS; binds
37) VRGTDAGV; no binding
38) VTGEDDWV; no binding
39) AETAGAAA; no binding
40) AATTSFVV; no binding
41) YRRGSALS; binds
42) YRGRDALV; binds
43) VEKGGDWD; no binding
44) FRRRGAWA; binds
45) VKGRADAD; no binding
46) SRGRGAWF; binds
47) VEGGGAWA; no binding
48) YRRKGSSS; binds
49) VKEKGAWY; binds
50) YRGGAAWD; binds
51) DRTGDDVA; no binding
52) AGERNVAS; binds
53) VRGRDAVS; binds
54) VTEGGDVA; no binding
55) VTGTGYVF; no binding
56) FTGRGSAD; binds
57) YRGRGVGF; binds
58) DAGAADAV; no binding
59) FKRGSSAA; binds
60) VAGTGDWA; no binding
61) YTEAADGA; no binding
62) VAEKGFGA; no binding
63) YTEGDDGA; no binding
64) AETKGDVY; no binding
65) DATGGSGD; no binding
66) YRGKGSGS; binds
67) YKARGAGV; binds
68) VRAGDDVD; no binding
69) FAATDSVS; binds
70) FRTGDAVF; no binding
71) DREEGDWA; no binding
72) DARRGSGD; no binding
73) VRRRGSLF; binds
74) YKRGAAGD; binds
75) YKARGALS; binds
76) DTTGSDWY; no binding
77) VERASAVV; no binding
78) YRKRGAGD; binds
79) DEAGDAVV; no binding
80) YRAGGFGS; binds
81) VRTRSFGA; binds
82) FRGRGSVV; binds
83) YKGRGAAF; binds
84) YRRRGSSF; binds
85) YRAGDAAD; no binding
86) YRGKGSGF; binds
87) AATTDSVD; no binding
88) DTKAADVA; no binding
89) YRARSSWD; binds
90) YRRKGDAD; binds
91) VTRGADAV; no binding
